Where do these numbers come from? They come from FireProtDB (doi:10.1006/jmbi.1995.0599).

B1: Lysozyme C, P61626 (parent)
chain: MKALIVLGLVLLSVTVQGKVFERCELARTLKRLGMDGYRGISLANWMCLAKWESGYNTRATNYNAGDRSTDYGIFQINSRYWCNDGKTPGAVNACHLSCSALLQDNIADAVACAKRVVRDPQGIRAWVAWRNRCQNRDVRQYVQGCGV

Variants of: B1
Conditions: Homo sapiens; pH 2.7; Thermal; DSC; glycine 0.05 M; reversible: yes; structure 1LZ1; whole UniProt chain shown
measurement name: unfolding enthalpy (van 't Hoff) (kcal/mol)

• MKALIVLGLVLLSVTVQGKVFERCELARTLKRLGMDGYRGISLANWMCLAKWESGYNTRATNYNAGDRSTDYGIFQVNSRYWCNDGKTPGAVNACHLSCSALLQDNIADAVACAKRVVRDPQGIRAWVAWRNRCQNRDVRQYVQGCGV [I77V] = 117
• MKALIVLGLVLLSVTVQGKVFERCELARTLKRLGMDGYRGISLANWMCLAKWESGYNTRATNYNAGDRSTDYGIFQINSRYWCNDGKTPGAVNACHLSCSALLQDNIADAVACAKRVVRDPQGVRAWVAWRNRCQNRDVRQYVQGCGV [I124V] = 114
• MKALIVLGLVLLSVTVQGKVFERCELARTLKRLGMDGYRGISLANWMCLAKWESGYNTRATNYNAGDRSTDYGVFQINSRYWCNDGKTPGAVNACHLSCSALLQDNIADAVACAKRVVRDPQGIRAWVAWRNRCQNRDVRQYVQGCGV [I74V] = 117
• MKALIVLGLVLLSVTVQGKVFERCELARTLKRLGMDGYRGISLANWMCLAKWESGYNTRATNYNAGDRSTDYGIFQINSRYWCNDGKTPGAVNACHLSCSALLQDNVADAVACAKRVVRDPQGIRAWVAWRNRCQNRDVRQYVQGCGV [I107V] = 122
• MKALIVLGLVLLSVTVQGKVFERCELARTLKRLGMDGYRGVSLANWMCLAKWESGYNTRATNYNAGDRSTDYGIFQINSRYWCNDGKTPGAVNACHLSCSALLQDNIADAVACAKRVVRDPQGIRAWVAWRNRCQNRDVRQYVQGCGV [I41V] = 120
